Exercise: state measured composite z-score for each of the compounds provided.
# EXPERIMENT_NOTES: COS7 lysate on small-molecule microarray, probe aHis, 635 nm (AID 1123);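 also: z-score combines 667nm fluorescence intensity with signal-to-noise per printed compound spot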
# CONDITION_SET: COS7 cell lysate, fluorescence, higher = more signal
Answer with a number only.

I would be grateful if you could share the reported composite z-score for CC=CC(O)C1C=CC2C(=O)N(C)C(=O)C2N1N(c1ccccc1)c1ccccc1 (centres undefined) .
-0.213

I would be grateful if you could share the reported composite z-score for C#CCN1[C@@H](Cc2ccc(O)cc2)C(=O)O[C@H](Cc2ccccc2)[C@@H]1/C=C/C1CC1 .
-0.225

I would be grateful if you could share the reported composite z-score for COC(=O)[C@@]1(Cc2ccc(F)cc2)[C@H]2c3cc(C(=O)N(C)C)n(Cc4cc(C)n(C)n4)c3C[C@H]2CN1C(=O)c1ccccc1 .
3.08

I would be grateful if you could share the reported composite z-score for Cc1ccc(C2C3C(=O)CC4C(=O)N(c5ccccc5)C(=O)C4C3CN2S(=O)(=O)c2ccc(C)cc2)cc1 (centres undefined) .
2.17

From: PubChem BioAssay
